Value source: ChEMBL document CHEMBL1131189

Test system: MCF7
Assay: Growth inhibitory activity was measured for human MCF-7 tumor cell line.
Assay type: functional
Details: read-out: ID50 (the source's name)
pIC50: −log10 of the molar value.
Each entry below carries its reported pIC50.

>>> result("CCNCCCNCC#CCNCCCNCC")
"< 4.51"
>>> result("CCNCCCNCc1ccccc1CNCCCNCC")
"< 4.51"

Ask: Please indicate recorded pIC50 of CCNCCCNCC1CCC1CNCCCNCC (stereo in doubt; 15) measured with MCF7.
Reply: < 4.51

Ask: Provide pIC50, recorded with MCF7, of CCNCCCNCCCCNCCCNCC [BIS(ETHYL)SPERMINE]
Reply: 6.26

---

System: DU-145
Experiment: The concentration levels of putrescine (PU) evaluated in DU145 cells treated with the compound concentration of 0.02 uM on third day of treatment.
Assay type: functional, cell-based
Details: Homo sapiens
measurement name: Concentration (nM (10e6*cells)-1)
Answer using only a numeral; do not append any unit.

>>> measured_number("CCNCCCNCC1CCC1CNCCCNCC (stereo in doubt; 15)")
0.162

Ask: Query Concentration (nM (10e6*cells)-1) for CCNCCCNCC1CC1CNCCCNCC (stereo in doubt; 5)
Reply: 0.08

Ask: Tell me measured Concentration (nM (10e6*cells)-1) for "CCNCCCNC/C=C\CNCCCNCC" please.
Reply: 0.11

Ask: Hello, please tell me recorded Concentration (nM (10e6*cells)-1) for this one: CCNCCCNCC1CC1CNCCCNCC (stereo in doubt; 9)
Reply: 0.05

---

Test system: PC-3
Assay: Growth inhibitory activity was measured for human PC-3 tumor cell line.
Format: functional
Conditions: Homo sapiens, PC-3; read-out: ID50 (the source's name)
Examples of compounds with documented IC50 follow.

>>> result("CCNCCCNCCCCNCCCNCC [BIS(ETHYL)SPERMINE]")
"0.24 µM"

Ask: Tell me its IC50 given "CCNCCCNCC#CCNCCCNCC" as the entry.
Reply: > 31.2 µM

Ask: // fetch IC50 given entry "CCNCCCNCc1ccccc1CNCCCNCC"
Reply: > 31.2 µM
